These entries and their values trace back to ChEMBL document CHEMBL1150672.

method-notes: Cytotoxicity against HUVEC after 24 hrs by MTT assay
Assay type: cell-based
experimental-setup: human, read-out: ID50
Hi there, I'd appreciate the recorded CC50 at 24 h for every entry that follows.

Provide the reported CC50 at 24 h of each entry below, same order.
1. CC(=O)O[C@H]1C[C@@H](C)C(C=O)=C2[C@@H]1C(C)(C)C[C@]2(C)CO [BOTRYENALOL]
2. CC(=O)O[C@H]1C[C@@H](C)[C@H](C=O)[C@]2(O)[C@@H]1C(C)(C)C[C@@]2(C)C=O

Ans:
1: > 10 µg/mL; 2: 5 µg/mL

I'm hoping you can list CC50 at 24 h for every compound here, please.
1. CC(=O)O[C@H]1C[C@@H](C)[C@@H]2C(=O)OC[C@@]3(C)CC(C)(C)[C@H]1[C@]23O
2. CC(=O)O[C@H]1C[C@@H](C)C(C=O)=C2[C@@H]1C(C)(C)C[C@]2(C)C=O [BOTRYENEDIAL]
3. COC(=O)[C@H]1[C@H](C)C[C@H](OC(C)=O)[C@H]2C(C)(C)C[C@](C)(C(=O)OC)[C@@]12O [DIMETHYL BOTRYDIOATE]

Ans:
1: > 10 µg/mL; 2: 10 µg/mL; 3: > 10 µg/mL
